biological target: Activin receptor type-2B (Homo sapiens) (UniProt Q13705); experiment: Competitive binding affinity to ACVR2B (unknown origin) at 10 uM in presence of ATP relative to control
Sequence (Q13705 whole entry): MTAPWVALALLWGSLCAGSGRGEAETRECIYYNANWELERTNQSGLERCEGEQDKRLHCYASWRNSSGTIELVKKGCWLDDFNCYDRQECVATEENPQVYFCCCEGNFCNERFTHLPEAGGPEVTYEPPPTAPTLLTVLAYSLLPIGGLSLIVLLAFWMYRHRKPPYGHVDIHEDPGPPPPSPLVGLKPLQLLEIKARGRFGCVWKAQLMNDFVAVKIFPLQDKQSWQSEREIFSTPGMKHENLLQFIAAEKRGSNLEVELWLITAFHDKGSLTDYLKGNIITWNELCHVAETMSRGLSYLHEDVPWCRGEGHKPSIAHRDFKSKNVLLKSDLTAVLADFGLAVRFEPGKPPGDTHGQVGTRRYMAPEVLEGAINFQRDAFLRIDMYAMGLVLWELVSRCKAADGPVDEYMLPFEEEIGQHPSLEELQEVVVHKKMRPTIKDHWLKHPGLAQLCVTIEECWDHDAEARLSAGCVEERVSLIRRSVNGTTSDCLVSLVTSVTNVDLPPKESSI
Reported values of inhibition for individual entries

O[C@H]1CC[C@H](Nc2nccc(-c3n[nH]c4ccccc34)n2)CC1 :: < 50%
O[C@H]1CC[C@H](Nc2nccc(-n3ccc4ccccc43)n2)CC1 :: < 50%
O[C@H]1CC[C@H](Nc2nccc(-n3ncc4ccccc43)n2)CC1 :: < 50%

Query block: So what inhibition did O[C@H]1CC[C@H](Nc2nccc(-n3nnc4ccccc43)n2)CC1 get with Activin receptor type-2B (Homo sapiens) (UniProt Q13705)?
Result block: 74%

----------
test system: Mast/stem cell growth factor receptor Kit (Homo sapiens), P10721 [D816V]; assay: Competitive binding affinity to KIT D816V mutant (unknown origin) at 10 uM in presence of ATP relative to control
Sequence (P10721 whole entry D816V): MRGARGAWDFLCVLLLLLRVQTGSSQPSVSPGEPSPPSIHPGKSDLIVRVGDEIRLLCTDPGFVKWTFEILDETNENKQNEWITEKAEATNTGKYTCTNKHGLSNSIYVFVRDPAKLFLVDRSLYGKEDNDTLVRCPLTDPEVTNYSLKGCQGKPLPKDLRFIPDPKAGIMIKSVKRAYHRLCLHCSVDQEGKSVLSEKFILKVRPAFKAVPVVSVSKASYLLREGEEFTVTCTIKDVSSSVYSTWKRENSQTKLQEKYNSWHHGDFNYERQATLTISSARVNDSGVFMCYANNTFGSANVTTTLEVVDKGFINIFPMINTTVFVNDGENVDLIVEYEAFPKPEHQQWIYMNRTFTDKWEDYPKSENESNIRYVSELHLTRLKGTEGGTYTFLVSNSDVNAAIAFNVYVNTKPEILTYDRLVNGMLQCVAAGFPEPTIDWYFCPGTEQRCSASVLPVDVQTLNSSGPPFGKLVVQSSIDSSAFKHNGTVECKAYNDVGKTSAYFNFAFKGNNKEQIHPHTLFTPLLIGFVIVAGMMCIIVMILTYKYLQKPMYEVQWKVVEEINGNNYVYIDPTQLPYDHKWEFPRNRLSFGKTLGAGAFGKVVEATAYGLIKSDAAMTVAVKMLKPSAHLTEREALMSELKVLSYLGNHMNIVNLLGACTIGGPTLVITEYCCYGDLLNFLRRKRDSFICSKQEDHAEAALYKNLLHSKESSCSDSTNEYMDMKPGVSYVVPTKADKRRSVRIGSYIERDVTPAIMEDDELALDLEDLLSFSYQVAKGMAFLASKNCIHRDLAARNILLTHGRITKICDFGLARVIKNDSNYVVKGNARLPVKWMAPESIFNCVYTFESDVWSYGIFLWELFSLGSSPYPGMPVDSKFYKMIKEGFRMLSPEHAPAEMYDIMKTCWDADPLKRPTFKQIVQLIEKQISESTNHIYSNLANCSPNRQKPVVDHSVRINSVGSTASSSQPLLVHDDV
measured_metric: inhibition (%)

O[C@H]1CC[C@H](Nc2nccc(-n3nnc4ccccc43)n2)CC1 :: 98

[A] O[C@H]1CC[C@H](Nc2nccc(-c3n[nH]c4ccccc34)n2)CC1
[B] O[C@H]1CC[C@H](Nc2nccc(-n3ncc4ccccc43)n2)CC1
Query block: // which entry has the larger inhibition value, A or B ? // caller expects the label of the chosen entry
Result block: A

----------
target: LIM domain kinase 1 (Homo sapiens); assay: Competitive binding affinity to LIMK1 (unknown origin) at 10 uM in presence of ATP relative to control
Sequence (P53667 whole entry, looked up, the tested form may be a part): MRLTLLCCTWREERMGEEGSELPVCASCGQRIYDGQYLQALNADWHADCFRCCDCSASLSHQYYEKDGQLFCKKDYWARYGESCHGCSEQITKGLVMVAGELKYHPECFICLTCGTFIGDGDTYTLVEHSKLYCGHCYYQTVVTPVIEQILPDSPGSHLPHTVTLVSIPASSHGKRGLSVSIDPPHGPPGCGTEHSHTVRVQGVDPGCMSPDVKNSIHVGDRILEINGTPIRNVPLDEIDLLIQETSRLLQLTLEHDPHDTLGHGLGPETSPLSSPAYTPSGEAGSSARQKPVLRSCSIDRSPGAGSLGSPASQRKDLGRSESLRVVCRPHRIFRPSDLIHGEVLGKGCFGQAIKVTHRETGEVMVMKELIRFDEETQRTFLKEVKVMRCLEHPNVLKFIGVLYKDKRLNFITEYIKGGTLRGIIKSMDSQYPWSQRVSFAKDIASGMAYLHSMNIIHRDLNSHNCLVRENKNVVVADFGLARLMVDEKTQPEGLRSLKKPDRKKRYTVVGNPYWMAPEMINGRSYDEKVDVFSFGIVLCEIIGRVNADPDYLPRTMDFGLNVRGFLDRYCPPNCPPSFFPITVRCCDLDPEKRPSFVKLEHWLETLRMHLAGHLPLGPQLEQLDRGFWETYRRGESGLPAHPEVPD
measured_metric: inhibition (%)

O[C@H]1CC[C@H](Nc2nccc(-c3n[nH]c4ccccc34)n2)CC1 :: 96
O[C@H]1CC[C@H](Nc2nccc(-n3nnc4ccccc43)n2)CC1 :: 87
O=C([C@H]1CC[C@H](Nc2nccc(-n3nnc4ccccc43)n2)CC1)N1CCOCC1 :: 78
O[C@H]1CC[C@H](Nc2nccc(-n3ccc4ccccc43)n2)CC1 :: 77
O[C@H]1CC[C@H](Nc2nccc(-n3ncc4ccccc43)n2)CC1 :: 88

----------
biological target: Platelet-derived growth factor receptor beta (Homo sapiens, UniProt P09619); assay: Competitive binding affinity to PDGFRB (unknown origin) at 10 uM in presence of ATP relative to control
Sequence (P09619 whole entry): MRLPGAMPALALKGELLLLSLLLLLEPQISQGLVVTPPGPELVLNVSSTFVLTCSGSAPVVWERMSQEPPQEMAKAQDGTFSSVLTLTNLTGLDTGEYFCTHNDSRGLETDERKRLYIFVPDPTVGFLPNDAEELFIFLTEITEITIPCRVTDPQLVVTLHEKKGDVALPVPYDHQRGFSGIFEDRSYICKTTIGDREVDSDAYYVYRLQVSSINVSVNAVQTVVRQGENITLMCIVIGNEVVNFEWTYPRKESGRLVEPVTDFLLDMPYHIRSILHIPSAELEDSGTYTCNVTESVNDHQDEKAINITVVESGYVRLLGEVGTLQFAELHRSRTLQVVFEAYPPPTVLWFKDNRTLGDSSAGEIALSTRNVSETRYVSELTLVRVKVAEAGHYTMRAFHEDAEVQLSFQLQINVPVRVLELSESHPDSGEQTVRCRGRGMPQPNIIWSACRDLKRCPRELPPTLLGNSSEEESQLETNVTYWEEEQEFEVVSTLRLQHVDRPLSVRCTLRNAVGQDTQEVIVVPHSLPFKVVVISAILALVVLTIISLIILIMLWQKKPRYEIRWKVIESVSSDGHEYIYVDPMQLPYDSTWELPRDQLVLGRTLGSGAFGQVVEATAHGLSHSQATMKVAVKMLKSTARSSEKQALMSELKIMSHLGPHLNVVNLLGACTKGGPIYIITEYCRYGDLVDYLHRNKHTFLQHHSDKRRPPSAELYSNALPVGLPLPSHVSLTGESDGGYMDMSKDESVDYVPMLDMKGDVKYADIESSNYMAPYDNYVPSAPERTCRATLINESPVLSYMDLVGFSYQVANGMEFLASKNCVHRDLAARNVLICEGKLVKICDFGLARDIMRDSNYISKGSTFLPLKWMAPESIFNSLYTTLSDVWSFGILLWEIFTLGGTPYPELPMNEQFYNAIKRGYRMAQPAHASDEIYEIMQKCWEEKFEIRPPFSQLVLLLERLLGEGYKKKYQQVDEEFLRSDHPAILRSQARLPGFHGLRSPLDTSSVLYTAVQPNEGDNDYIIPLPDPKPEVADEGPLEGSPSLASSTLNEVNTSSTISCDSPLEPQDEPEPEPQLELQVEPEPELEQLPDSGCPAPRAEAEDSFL
measured_metric: inhibition (%)

O[C@H]1CC[C@H](Nc2nccc(-n3ccc4ccccc43)n2)CC1 :: 67
O[C@H]1CC[C@H](Nc2nccc(-n3nnc4ccccc43)n2)CC1 :: 91
O=C([C@H]1CC[C@H](Nc2nccc(-n3nnc4ccccc43)n2)CC1)N1CCOCC1 :: 70
O[C@H]1CC[C@H](Nc2nccc(-n3ncc4ccccc43)n2)CC1 :: 90
O[C@H]1CC[C@H](Nc2nccc(-c3n[nH]c4ccccc34)n2)CC1 :: 98
N[C@H]1CC[C@H](Nc2nccc(-n3nnc4ccccc43)n2)CC1 :: 95

----------
system: Mast/stem cell growth factor receptor Kit (Homo sapiens), P10721 [V559D,T670I]; assay: Competitive binding affinity to KIT V559D/T670I double mutant (unknown origin) at 10 uM in presence of ATP relative to control
Sequence (P10721 whole entry V559D/T670I): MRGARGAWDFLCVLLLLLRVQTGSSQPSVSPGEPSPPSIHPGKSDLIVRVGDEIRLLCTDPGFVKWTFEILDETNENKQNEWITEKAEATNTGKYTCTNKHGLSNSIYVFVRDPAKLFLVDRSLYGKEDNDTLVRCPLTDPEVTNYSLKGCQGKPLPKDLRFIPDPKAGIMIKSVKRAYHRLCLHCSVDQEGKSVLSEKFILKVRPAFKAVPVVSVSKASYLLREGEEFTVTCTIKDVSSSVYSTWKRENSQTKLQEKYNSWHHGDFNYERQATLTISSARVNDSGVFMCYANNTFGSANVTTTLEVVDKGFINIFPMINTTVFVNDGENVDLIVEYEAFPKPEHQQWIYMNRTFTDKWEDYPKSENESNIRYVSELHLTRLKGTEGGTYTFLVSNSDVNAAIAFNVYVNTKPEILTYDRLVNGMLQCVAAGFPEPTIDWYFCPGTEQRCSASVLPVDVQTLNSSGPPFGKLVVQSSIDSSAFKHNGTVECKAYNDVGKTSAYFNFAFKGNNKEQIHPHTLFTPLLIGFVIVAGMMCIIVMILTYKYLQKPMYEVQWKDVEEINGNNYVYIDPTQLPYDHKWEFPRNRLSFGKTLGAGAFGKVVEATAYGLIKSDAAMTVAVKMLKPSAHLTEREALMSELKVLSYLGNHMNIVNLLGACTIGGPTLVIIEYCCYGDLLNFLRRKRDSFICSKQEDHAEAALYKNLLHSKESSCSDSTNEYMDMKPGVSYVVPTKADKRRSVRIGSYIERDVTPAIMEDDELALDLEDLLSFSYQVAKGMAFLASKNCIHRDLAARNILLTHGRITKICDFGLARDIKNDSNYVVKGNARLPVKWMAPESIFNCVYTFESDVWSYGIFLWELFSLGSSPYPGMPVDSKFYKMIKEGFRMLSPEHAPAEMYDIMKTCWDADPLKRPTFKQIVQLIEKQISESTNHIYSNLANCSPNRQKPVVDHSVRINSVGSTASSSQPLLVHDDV
measured_metric: inhibition (%)

O[C@H]1CC[C@H](Nc2nccc(-n3nnc4ccccc43)n2)CC1 :: 74
O[C@H]1CC[C@H](Nc2nccc(-n3ncc4ccccc43)n2)CC1 :: 80
O[C@H]1CC[C@H](Nc2nccc(-c3n[nH]c4ccccc34)n2)CC1 :: 96

----------
Reported values of inhibition for individual entries
molecular target: Mitogen-activated protein kinase kinase kinase 4 (Homo sapiens) (UniProt Q9Y6R4); experiment: Competitive binding affinity to MAP3K4 (unknown origin) at 10 uM in presence of ATP relative to control

Example results:
O[C@H]1CC[C@H](Nc2nccc(-n3ccc4ccccc43)n2)CC1 :: < 50%
O[C@H]1CC[C@H](Nc2nccc(-n3nnc4ccccc43)n2)CC1 :: < 50%
N[C@H]1CC[C@H](Nc2nccc(-n3nnc4ccccc43)n2)CC1 :: 84%
O[C@H]1CC[C@H](Nc2nccc(-n3ncc4ccccc43)n2)CC1 :: < 50%
O[C@H]1CC[C@H](Nc2nccc(-c3n[nH]c4ccccc34)n2)CC1 :: 100%

Note: attention shifts to another entry.
Query block: So what inhibition did O=C([C@H]1CC[C@H](Nc2nccc(-n3nnc4ccccc43)n2)CC1)N1CCOCC1 get with Mitogen-activated protein kinase kinase kinase 4 (Homo sapiens) (UniProt Q9Y6R4)?
Result block: < 50%

Just for reference, ChEMBL document CHEMBL2424622 is where these values come from.
